# Tested on: HCT-116
# Method summary: NCI tumour cell line growth inhibition, 48 h
Active and inactive are the calls of the source. Rule as the data show it: active = GI50 up to about 1.1 µM and inactive = higher.
Please state which outcome applies, choosing from yes for active, no for inactive

Inquiry: What is the recorded call for this molecule in the test? O=C(O)/C(Cc1c[nH]nn1)=N\O
Reply text: no

Inquiry: What call does the record list for c1ccc([I+]c2ccccc2)cc1 ?
Reply text: no

Inquiry: Query: recorded result category for C=C(C)[C@@]1(OC(=O)c2cc([N+](=O)[O-])cc([N+](=O)[O-])c2)C[C@@H]2CCCC[C@@H]21 in this test
Reply text: no

Inquiry: Check the results log: what was the call for O=C(/C=C/c1ccc(Cl)c(Cl)c1)CCN1CCN(CCC(=O)/C=C/c2ccc(Cl)c(Cl)c2)CC1 ?
Reply text: no

Inquiry: Each molecule tested received a call. Report the one for CSc1ccc(/C=C2\N=C(c3ccccc3)N(c3nc4cc(C)c(C)cc4s3)C2=O)cc1 .
Reply text: no

Inquiry: Could you check what this test reported for O=C1Nc2ccccc2C12CCNC2Cc1ccccc1 (stereo unspecified) ?
Reply text: no

Inquiry: Write down the call the test reported for this molecule. Item: CN(C=O)/C=C/c1cc(O)ccc1O
Reply text: no

Inquiry: Test call for this molecule, please: COc1ccc2c(=O)c3c([nH]c2c1)OCC3=O
Reply text: no

Inquiry: Recorded test call requested for C[C@H](N)C(=O)Nc1ccc(-c2nc3ccccc3s2)cc1Cl
Reply text: no

Inquiry: Hi team, can someone confirm the assay call for COc1ccc2c(c1)c(=O)c1c(NCCN(C)C)ccc3c(=O)n(CCN(C)C)c(=O)n2c31 ?
Reply text: yes

Inquiry: Recorded test outcome, item C1CN1c1nc(N2CC2)nc(N2CC2)n1
Reply text: no

----------
# Test system: OVCAR-4
# Method summary: NCI tumour cell line growth inhibition, 48 h
Calls of active or inactive are those of the source. No stated cut-off is given here; in the data, active = GI50 up to about 1.1 µM and inactive = higher.
Examples of molecules with documented GI50 follow.

Molecule	GI50
COc1ccc(C(NCCNC(c2ccc(OC)c(OC)c2)c2cc3c(cc2O)OCO3)c2cc3c(cc2O)OCO3)cc1OC (centres undefined)	4.83 µM (inactive)
Cc1cccc(NC(=S)N/N=C(/c2ccccc2)c2ccccn2)c1	0.368 µM (active)
COc1ccc(/C(=N\NC(=N)N)C(c2ccc(OC)cc2)C2OC(=O)c3ccccc32)cc1 (centres undefined)	> 100 µM (inactive)
COc1ccc(C2C3=C(COC3=O)OC(C)(C)Oc3cc4c(cc32)OCO4)cc1OC (centres undefined)	> 53.8 µM (inactive)
COc1ccc2c(=O)c3c([nH]c2c1)OCC3=O	> 100 µM (inactive)
O=C1CN(c2cccc(C(F)(F)F)c2)C(=O)CN1CCN1CC(=O)N(c2cccc(C(F)(F)F)c2)CC1=O	> 100 µM (inactive)
C1=C2SSC3=CC=C(SSc4ccc(s4)SSC4=CC=C(SSC(=C1)S2)S4)S3	> 100 µM (inactive)
CC(=O)O[C@H]1C(=O)[C@@]2(C)C(C(OC(=O)c3ccccc3)[C@]3(O)CC(OC(=O)C(O)C(NC(=O)c4ccccc4)c4cccc(Cl)c4)C(C)=C1C3(C)C)[C@]1(OC(C)=O)CO[C@@H]1C[C@@H]2O (some centres undefined)	> 10 µM (inactive)

Let us move to another entry and its GI50.
Inquiry: Return reported GI50; argument: COc1ccc(CNNC(=O)c2cc[n+]([BH2-]C#N)cc2)cc1OC
Reply text: > 100 µM (inactive)
